IC50 by entry:
- ASSAYED_TARGET: PARP1 enzyme (Homo sapiens (Human), UniProt P09874)
- Sequence (P09874 whole entry): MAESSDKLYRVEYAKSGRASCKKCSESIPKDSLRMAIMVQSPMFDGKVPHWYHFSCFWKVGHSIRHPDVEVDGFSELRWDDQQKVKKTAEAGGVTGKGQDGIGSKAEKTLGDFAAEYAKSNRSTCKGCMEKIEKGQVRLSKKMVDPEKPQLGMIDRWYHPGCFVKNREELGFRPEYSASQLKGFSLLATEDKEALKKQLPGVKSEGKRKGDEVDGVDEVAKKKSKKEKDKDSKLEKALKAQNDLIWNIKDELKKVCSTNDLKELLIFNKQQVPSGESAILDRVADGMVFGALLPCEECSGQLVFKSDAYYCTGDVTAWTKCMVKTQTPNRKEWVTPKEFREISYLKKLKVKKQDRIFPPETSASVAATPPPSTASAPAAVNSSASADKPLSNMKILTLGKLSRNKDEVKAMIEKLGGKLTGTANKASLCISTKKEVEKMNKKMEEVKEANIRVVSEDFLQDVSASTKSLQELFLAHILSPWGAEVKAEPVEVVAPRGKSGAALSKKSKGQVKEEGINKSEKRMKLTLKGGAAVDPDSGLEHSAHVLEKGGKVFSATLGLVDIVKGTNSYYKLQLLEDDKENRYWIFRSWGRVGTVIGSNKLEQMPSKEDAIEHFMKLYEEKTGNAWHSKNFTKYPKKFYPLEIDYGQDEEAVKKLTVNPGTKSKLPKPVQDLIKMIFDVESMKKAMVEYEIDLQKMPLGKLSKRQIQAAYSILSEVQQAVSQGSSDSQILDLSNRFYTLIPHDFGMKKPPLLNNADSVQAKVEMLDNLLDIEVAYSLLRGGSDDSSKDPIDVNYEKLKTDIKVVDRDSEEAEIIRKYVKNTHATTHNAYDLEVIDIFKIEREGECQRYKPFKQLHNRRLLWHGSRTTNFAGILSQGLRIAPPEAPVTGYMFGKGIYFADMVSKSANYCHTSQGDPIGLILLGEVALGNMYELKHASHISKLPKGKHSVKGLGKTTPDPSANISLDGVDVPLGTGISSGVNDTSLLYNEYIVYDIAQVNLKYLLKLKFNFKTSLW
Provide only the numeric value, understood in nM.

Q: For O=c1[nH]nc2c3c(cc(F)cc13)N[C@@H](C1CC1)[C@@H]2c1ccccc1Cl [Compound 0207A] , what is its reported IC50?
Result: 64

Q: For O=c1[nH]nc2c3c(cc(F)cc13)NC[C@H]2c1ccccc1Cl [Compound 0120A] , what is its reported IC50?
Result: 87

Q: For O=c1[nH]nc2c3c(cc(F)cc13)NC(C1(F)CC1)[C@H]2c1ccccc1Cl (stereo partly drawn) [Compound 0260B] , what is its reported IC50?
Result: 106

Q: For O=c1[nH]nc2c3c(cc(F)cc13)NC[C@H]2c1ccccn1 [Compound 0211A] , what is its reported IC50?
Result: 27

====

MDCK-MDR1 Papp A→B (10^−6 cm/s) by entry:
- ASSAYED_TARGET: human MDR1 (P-glycoprotein; P-gp) (Homo sapiens (Human))
- ASSAY_COMMENT: bi-directional MDCK-MDR1 permeability assay
- Format: in vitro ADME
- COND: apical to basolateral direction

Would you please look over these solved cases?
[
  {
    "MOLECULE": "O=c1[nH]nc2c3c(cc(F)cc13)N[C@H](C1CC1)[C@H]2c1ccccc1Cl [Compound 0207B]",
    "ASSAYED_TARGET": "human MDR1 (P-glycoprotein; P-gp) (Homo sapiens (Human))",
    "MDCK-MDR1 Papp A→B (10^−6 cm/s)": "14.4 10^−6 cm/s"
  },
  {
    "MOLECULE": "O=c1[nH]nc2c3c(cc(F)cc13)NCC2c1ccc(Cl)cc1F (stereo not drawn)",
    "ASSAYED_TARGET": "human MDR1 (P-glycoprotein; P-gp) (Homo sapiens (Human))",
    "MDCK-MDR1 Papp A→B (10^−6 cm/s)": "10.6 10^−6 cm/s"
  },
  {
    "MOLECULE": "CC(C)[C@H]1Nc2cc(F)cc3c(=O)[nH]nc(c23)[C@H]1c1ccccc1Cl [Compound 0222B]",
    "ASSAYED_TARGET": "human MDR1 (P-glycoprotein; P-gp) (Homo sapiens (Human))",
    "MDCK-MDR1 Papp A→B (10^−6 cm/s)": "9.59 10^−6 cm/s"
  },
  {
    "MOLECULE": "O=c1[nH]nc2c3c(cc(F)cc13)N[C@@H]([C@@H]1CCOC1)[C@@H]2c1ccccc1Cl [Compound 0121D]",
    "ASSAYED_TARGET": "human MDR1 (P-glycoprotein; P-gp) (Homo sapiens (Human))",
    "MDCK-MDR1 Papp A→B (10^−6 cm/s)": "3.66 10^−6 cm/s"
  },
  {
    "MOLECULE": "O=c1[nH]nc2c3c(cc(F)cc13)N[C@@H](C1CC1)[C@@H]2c1ccccc1Cl [Compound 0207A]",
    "ASSAYED_TARGET": "human MDR1 (P-glycoprotein; P-gp) (Homo sapiens (Human))",
    "MDCK-MDR1 Papp A→B (10^−6 cm/s)": "9.65 10^−6 cm/s"
  }
]

Q: For O=c1[nH]nc2c3c(cc(F)cc13)N[C@H](C1CCOCC1)[C@H]2c1ccccc1Cl [Compound 0210B] , what is its reported MDCK-MDR1 Papp A→B (10^−6 cm/s)?
Result: 2.27 10^−6 cm/s

Q: For O=c1[nH]nc2c3c(cc(F)cc13)N[C@H]([C@H]1CCOC1)[C@H]2c1ccc(F)cc1F [Compound 0115A] , what is its reported MDCK-MDR1 Papp A→B (10^−6 cm/s)?
Result: 8.3 10^−6 cm/s

Q: For O=c1[nH]nc2c3c(cc(F)cc13)N[C@@H](C1CCN(C3CCC(F)(F)CC3)CC1)[C@@H]2c1ccc(Cl)cc1F [Compound 0256A] , what is its reported MDCK-MDR1 Papp A→B (10^−6 cm/s)?
Result: 5.76 10^−6 cm/s

Q: For CC(C)[C@@H]1Nc2cc(F)cc3c(=O)[nH]nc(c23)[C@H]1c1c(F)cc(F)cc1F [Compound 0221B] , what is its reported MDCK-MDR1 Papp A→B (10^−6 cm/s)?
Result: 8.48 10^−6 cm/s

Q: For Cn1ncnc1[C@H]1CNc2cc(F)cc3c(=O)[nH]nc1c23 [Compound 0200B] , what is its reported MDCK-MDR1 Papp A→B (10^−6 cm/s)?
Result: 1.2 10^−6 cm/s

Q: For O=c1[nH]nc2c3c(cc(F)cc13)N[C@@H]([C@H]1CCOC1)[C@@H]2c1ccc(F)cc1F [Compound 0115C] , what is its reported MDCK-MDR1 Papp A→B (10^−6 cm/s)?
Result: 4.82 10^−6 cm/s

Q: For O=c1[nH]nc2c3c(cc(F)cc13)NC[C@H]2c1ccccn1 [Compound 0211A] , what is its reported MDCK-MDR1 Papp A→B (10^−6 cm/s)?
Result: 9.25 10^−6 cm/s

====

- ASSAYED_TARGET: human MDR1 (P-glycoprotein; P-gp) (Homo sapiens (Human), UniProt P08183)
- Sequence (P08183 whole entry): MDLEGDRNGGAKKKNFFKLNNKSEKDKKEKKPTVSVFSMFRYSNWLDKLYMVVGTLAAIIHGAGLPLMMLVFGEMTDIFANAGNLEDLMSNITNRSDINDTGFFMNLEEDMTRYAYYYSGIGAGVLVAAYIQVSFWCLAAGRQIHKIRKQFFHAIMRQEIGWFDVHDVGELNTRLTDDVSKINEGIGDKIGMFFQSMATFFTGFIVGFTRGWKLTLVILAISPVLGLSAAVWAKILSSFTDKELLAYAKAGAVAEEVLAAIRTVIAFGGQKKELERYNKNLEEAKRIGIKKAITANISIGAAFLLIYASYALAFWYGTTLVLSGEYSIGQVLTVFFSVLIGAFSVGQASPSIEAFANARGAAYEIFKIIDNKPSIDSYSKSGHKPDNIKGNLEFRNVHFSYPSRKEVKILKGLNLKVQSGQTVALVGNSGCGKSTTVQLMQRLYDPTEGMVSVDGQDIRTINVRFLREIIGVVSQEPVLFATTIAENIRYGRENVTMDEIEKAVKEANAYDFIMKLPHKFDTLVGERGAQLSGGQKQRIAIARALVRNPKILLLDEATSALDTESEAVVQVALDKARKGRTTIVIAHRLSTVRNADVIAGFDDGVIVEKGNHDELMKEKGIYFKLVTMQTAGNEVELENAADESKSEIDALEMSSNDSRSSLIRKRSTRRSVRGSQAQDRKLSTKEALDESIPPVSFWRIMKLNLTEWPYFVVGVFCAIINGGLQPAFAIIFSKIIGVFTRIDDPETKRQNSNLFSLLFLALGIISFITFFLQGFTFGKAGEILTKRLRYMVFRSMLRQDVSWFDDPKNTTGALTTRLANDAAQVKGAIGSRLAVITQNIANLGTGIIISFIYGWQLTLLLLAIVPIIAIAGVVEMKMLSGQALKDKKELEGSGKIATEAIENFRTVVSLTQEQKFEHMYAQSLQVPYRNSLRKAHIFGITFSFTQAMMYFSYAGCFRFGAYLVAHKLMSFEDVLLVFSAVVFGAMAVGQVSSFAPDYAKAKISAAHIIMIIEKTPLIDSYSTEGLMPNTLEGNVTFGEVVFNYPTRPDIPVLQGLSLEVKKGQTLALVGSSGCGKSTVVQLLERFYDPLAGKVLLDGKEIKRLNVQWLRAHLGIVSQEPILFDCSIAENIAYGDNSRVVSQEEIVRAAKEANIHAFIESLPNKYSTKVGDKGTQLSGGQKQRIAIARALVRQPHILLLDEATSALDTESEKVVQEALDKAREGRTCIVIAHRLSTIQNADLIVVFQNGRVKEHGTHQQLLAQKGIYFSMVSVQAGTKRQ
- ASSAY_COMMENT: bi-directional MDCK-MDR1 permeability assay
- Format: in vitro ADME
- COND: dog, MDCK-MDR1; apical to basolateral direction
Papp A→B by entry:
Provide only the numeric value, understood in ×10⁻⁶ cm/s.

Would you please look over these solved cases?
[
  {
    "MOLECULE": "C[C@@H]1Nc2cc(F)cc3c(=O)[nH]nc(c23)[C@H]1c1ccc(Cl)c(F)c1 [Compound 0195B]",
    "ASSAYED_TARGET": "human MDR1 (P-glycoprotein; P-gp) (Homo sapiens (Human), UniProt P08183)",
    "DISPLAY_UNIT": "×10⁻⁶ cm/s",
    "RECORDED_MEASUREMENT": 16.4
  },
  {
    "MOLECULE": "O=c1[nH]nc2c3c(cc(F)cc13)NC[C@@H]2c1ccccc1Cl [Compound 0120B]",
    "ASSAYED_TARGET": "human MDR1 (P-glycoprotein; P-gp) (Homo sapiens (Human), UniProt P08183)",
    "DISPLAY_UNIT": "×10⁻⁶ cm/s",
    "RECORDED_MEASUREMENT": 13.3
  },
  {
    "MOLECULE": "C[C@H]1Nc2cc(F)cc3c(=O)[nH]nc(c23)[C@@H]1c1ccc(Cl)c(F)c1 [Compound 0195A]",
    "ASSAYED_TARGET": "human MDR1 (P-glycoprotein; P-gp) (Homo sapiens (Human), UniProt P08183)",
    "DISPLAY_UNIT": "×10⁻⁶ cm/s",
    "RECORDED_MEASUREMENT": 13.9
  },
  {
    "MOLECULE": "C[C@H]1Nc2cc(F)cc3c(=O)[nH]nc(c23)[C@@H]1c1ccc(F)cc1F [Compound 0174A]",
    "ASSAYED_TARGET": "human MDR1 (P-glycoprotein; P-gp) (Homo sapiens (Human), UniProt P08183)",
    "DISPLAY_UNIT": "×10⁻⁶ cm/s",
    "RECORDED_MEASUREMENT": 14
  },
  {
    "MOLECULE": "CN1CCC([C@H]2Nc3cc(F)cc4c(=O)[nH]nc(c34)[C@H]2c2ccc(F)cc2F)CC1 [Compound 0110B]",
    "ASSAYED_TARGET": "human MDR1 (P-glycoprotein; P-gp) (Homo sapiens (Human), UniProt P08183)",
    "DISPLAY_UNIT": "×10⁻⁶ cm/s",
    "RECORDED_MEASUREMENT": 0.498
  }
]

Q: For O=c1[nH]nc2c3c(cc(F)cc13)NC[C@@H]2c1ccc(F)cc1F [Compound 0114B] , what is its reported Papp A→B?
Result: 18.6

Q: For O=c1[nH]nc2c3c(cc(F)cc13)NC[C@H]2c1ccccc1Cl [Compound 0120A] , what is its reported Papp A→B?
Result: 12.9

Q: For C[C@H]1Nc2cc(F)cc3c(=O)[nH]nc(c23)[C@@H]1c1ccccc1Cl [Compound 0172A] , what is its reported Papp A→B?
Result: 11

Q: For O=c1[nH]nc2c3c(cc(F)cc13)NC[C@H]2c1ccc(Cl)c(F)c1 [Compound 0188A] , what is its reported Papp A→B?
Result: 11.7

Q: For C[C@@H]1Nc2cc(F)cc3c(=O)[nH]nc(c23)[C@H]1c1ccc(F)cc1F [Compound 0174B] , what is its reported Papp A→B?
Result: 13.8

Q: For O=c1[nH]nc2c3c(cc(F)cc13)NCC2c1ccc(Cl)c(F)c1 (centres unmarked) , what is its reported Papp A→B?
Result: 11.7
